Value source: patent US20100196390A1

molecular target: T1, rat TrkB monomer (His ECD) (rat, UniProt Q63604 32-429); assay: SPR (Biacore), Fab over amine-coupled TrkB His ECD monomer, 25 C
T1 construct: extracellular domain; amine-coupled to the chip
T1 sequence (Q63604 32-429): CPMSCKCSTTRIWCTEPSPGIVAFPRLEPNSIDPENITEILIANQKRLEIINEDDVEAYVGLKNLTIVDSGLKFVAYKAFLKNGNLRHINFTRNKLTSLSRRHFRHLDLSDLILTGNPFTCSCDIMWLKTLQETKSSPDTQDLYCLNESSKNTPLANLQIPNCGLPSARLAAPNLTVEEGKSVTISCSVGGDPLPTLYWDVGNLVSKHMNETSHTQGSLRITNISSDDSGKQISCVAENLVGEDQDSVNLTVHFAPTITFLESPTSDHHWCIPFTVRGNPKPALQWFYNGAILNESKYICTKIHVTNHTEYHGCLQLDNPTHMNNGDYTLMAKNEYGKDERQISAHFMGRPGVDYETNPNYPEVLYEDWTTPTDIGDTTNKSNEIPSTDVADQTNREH
quantity measured: Kd
# do not omit the unit; it follows the number

>>> obs_value("4B12 (Fab, V domains shown, Fab) VH: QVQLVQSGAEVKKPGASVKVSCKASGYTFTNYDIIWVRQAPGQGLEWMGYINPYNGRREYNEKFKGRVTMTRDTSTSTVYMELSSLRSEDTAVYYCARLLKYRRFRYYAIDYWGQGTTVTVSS VL: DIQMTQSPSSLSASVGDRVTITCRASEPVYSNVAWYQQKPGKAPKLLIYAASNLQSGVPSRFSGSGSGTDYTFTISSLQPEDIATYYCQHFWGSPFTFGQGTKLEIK")
"0.41 nM"

Fill in the blank: the reported Kd of C2 (Fab, V domains shown, Fab) VH: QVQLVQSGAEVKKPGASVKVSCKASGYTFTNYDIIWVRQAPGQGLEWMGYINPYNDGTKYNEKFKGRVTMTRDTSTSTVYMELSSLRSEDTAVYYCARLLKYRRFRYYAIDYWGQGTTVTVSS VL: DIQMTQSPSSLSASVGDRVTITCRTSENVYSNLAWYQQKPGKAPKLLIYAASNLQSGVPSRFSGSGSGTDYTFTISSLQPEDIATYYCQHFWGSPFTFGQGTKLEIK is ____.
2.29 nM

Fill in the blank: the reported Kd of 4A6 (Fab, V domains shown, Fab) VH: QVQLVQSGAEVKKPGASVKVSCKASGYTFTNYDIIWVRQAPGQGLEWMGYINPYNRRREYNEKFKGRVTMTRDTSTSTVYMELSSLRSEDTAVYYCARLLKYRRFRYYAIDYWGQGTTVTVSS VL: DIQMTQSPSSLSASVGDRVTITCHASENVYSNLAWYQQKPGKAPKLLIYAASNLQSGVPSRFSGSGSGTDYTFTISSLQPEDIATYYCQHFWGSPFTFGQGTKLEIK is ____.
0.27 nM
